Molecular target: T1, human IL-33 (R&D Systems, #3625-IL-010/CF) (human) (UniProt O95760)
T1 sequence (looked up): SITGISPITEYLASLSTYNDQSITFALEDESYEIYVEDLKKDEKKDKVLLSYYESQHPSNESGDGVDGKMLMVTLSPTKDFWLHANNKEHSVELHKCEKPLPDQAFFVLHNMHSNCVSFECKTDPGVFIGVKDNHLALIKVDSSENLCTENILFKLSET
Test: SPR Biacore T200, 37 C

>  <binder>
H4H9662P (antibody, from another filing, IgG4, V domains shown) VH: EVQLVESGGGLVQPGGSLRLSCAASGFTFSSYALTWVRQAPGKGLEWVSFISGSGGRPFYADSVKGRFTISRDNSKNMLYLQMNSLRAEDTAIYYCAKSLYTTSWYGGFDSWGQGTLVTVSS VL: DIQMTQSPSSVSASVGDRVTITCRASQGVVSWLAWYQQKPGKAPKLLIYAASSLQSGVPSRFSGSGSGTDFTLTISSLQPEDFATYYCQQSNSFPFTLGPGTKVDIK

>  <t1/2 [min]>
20

$$$$
>  <binder>
H4H9671P (antibody, from another filing, IgG4, V domains shown) VH: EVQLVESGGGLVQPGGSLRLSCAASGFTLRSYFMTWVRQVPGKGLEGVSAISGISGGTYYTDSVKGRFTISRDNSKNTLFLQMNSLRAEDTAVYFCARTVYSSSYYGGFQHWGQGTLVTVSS VL: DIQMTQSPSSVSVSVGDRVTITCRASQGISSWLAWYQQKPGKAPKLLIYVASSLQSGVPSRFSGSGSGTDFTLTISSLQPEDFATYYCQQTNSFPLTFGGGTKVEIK

>  <t1/2 [min]>
6

$$$$
>  <binder>
H4H9660P (antibody, from another filing, IgG4, V domains shown) VH: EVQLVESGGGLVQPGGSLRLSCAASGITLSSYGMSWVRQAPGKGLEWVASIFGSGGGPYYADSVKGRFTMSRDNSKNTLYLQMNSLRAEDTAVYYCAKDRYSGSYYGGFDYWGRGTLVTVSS VL: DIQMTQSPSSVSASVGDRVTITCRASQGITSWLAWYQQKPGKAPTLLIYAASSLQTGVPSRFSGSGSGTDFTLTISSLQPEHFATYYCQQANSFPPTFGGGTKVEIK

>  <t1/2 [min]>
28

$$$$
>  <binder>
H4H9663P (antibody, from another filing, IgG4, V domains shown) VH: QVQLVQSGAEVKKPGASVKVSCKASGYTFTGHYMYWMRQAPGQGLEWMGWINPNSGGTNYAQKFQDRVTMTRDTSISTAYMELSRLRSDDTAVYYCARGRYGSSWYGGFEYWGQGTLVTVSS VL: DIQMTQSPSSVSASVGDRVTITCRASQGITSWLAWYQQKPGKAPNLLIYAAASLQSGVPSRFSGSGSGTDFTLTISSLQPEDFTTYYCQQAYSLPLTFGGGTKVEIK

>  <t1/2 [min]>
7

$$$$
>  <binder>
H4H9676P (antibody, from another filing, IgG4, V domains shown) VH: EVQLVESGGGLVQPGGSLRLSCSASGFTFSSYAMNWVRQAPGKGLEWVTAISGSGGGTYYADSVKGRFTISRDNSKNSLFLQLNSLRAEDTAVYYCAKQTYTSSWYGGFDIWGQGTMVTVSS VL: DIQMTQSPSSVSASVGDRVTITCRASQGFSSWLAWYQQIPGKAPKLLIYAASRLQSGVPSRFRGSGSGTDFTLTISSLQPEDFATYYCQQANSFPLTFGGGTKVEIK

>  <t1/2 [min]>
7

$$$$
>  <binder>
H4H9672P (antibody, from another filing, IgG4, V domains shown) VH: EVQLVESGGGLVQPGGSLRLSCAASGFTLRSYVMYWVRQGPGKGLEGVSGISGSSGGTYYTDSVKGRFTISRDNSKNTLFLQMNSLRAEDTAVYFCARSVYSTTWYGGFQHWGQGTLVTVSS VL: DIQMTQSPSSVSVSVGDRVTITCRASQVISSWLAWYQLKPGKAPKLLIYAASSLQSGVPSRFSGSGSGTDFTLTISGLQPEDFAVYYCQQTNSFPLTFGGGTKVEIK

>  <t1/2 [min]>
9

$$$$

Origin of measurements: patent US20190092852A1
